Cmax values by entry
Test: Blood level after a 10 mg/kg oral dose in rat expressed as Cmax was determined
Type: ADME, organism-based
Design: dose 10 mg/kg, route oral

Answered examples (4):
# compound, Cmax
data = [
    ("N=C(N)c1ccc(C(=O)Nc2ccc3c(c2)CCC(CC(=O)O)C3=O)cn1 (stereo unspecified)", "1170 ng/mL"),
    ("N=C(N)c1ccc(C(=O)Nc2ccc3c(c2)CCC(CC(=O)O)C3=O)c(Cl)c1 (stereo unspecified)", "3110 ng/mL"),
    ("N=C(N)c1ccc(C(=O)Nc2ccc3c(c2)CCC(CC(=O)O)C3=O)cc1 (stereo unspecified)", "3630 ng/mL"),
    ("N=C(N)c1ccc(C(=O)Nc2ccc3c(c2)CCC(CC(=O)O)C3=O)c(F)c1 (stereo unspecified)", "4020 ng/mL"),
]

Using known records, supply Cmax for N=C(N)c1cc(F)c(C(=O)Nc2ccc3c(c2)CCC(CC(=O)O)C3=O)c(F)c1 (stereo unspecified) 2020 ng/mL

Answer with the recorded Cmax of O=C(O)CC1CCc2cc(NC(=O)/C=C/C3CCNCC3)ccc2C1=O (stereo unspecified) only. 2700 ng/mL

----------
Recorded pIC50 for the following molecules
Target: Integrin alpha-IIb/beta-3 (Homo sapiens, UniProt P05106+P08514)
Sequence (P05106 27-788 limits assumed): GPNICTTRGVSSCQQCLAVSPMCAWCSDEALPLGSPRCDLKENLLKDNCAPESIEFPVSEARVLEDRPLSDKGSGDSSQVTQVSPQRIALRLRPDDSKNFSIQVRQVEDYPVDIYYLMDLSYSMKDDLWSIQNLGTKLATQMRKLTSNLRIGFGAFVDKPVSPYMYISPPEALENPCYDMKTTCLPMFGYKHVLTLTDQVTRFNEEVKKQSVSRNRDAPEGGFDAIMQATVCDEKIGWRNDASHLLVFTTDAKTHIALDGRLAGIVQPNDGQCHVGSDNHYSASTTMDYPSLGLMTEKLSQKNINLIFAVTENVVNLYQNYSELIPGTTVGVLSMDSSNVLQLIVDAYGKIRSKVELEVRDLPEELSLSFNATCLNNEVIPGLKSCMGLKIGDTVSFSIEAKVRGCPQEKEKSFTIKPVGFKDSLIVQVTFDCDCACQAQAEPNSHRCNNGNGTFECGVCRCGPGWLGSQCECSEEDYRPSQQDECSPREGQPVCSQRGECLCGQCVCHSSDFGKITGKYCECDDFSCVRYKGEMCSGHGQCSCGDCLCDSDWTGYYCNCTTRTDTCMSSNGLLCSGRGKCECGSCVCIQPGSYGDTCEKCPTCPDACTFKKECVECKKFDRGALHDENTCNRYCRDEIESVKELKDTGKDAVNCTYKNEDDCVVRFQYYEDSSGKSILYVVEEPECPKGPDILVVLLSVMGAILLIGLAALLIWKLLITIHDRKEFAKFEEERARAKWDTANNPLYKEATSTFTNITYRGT
Sequence (P08514 32-887 limits assumed): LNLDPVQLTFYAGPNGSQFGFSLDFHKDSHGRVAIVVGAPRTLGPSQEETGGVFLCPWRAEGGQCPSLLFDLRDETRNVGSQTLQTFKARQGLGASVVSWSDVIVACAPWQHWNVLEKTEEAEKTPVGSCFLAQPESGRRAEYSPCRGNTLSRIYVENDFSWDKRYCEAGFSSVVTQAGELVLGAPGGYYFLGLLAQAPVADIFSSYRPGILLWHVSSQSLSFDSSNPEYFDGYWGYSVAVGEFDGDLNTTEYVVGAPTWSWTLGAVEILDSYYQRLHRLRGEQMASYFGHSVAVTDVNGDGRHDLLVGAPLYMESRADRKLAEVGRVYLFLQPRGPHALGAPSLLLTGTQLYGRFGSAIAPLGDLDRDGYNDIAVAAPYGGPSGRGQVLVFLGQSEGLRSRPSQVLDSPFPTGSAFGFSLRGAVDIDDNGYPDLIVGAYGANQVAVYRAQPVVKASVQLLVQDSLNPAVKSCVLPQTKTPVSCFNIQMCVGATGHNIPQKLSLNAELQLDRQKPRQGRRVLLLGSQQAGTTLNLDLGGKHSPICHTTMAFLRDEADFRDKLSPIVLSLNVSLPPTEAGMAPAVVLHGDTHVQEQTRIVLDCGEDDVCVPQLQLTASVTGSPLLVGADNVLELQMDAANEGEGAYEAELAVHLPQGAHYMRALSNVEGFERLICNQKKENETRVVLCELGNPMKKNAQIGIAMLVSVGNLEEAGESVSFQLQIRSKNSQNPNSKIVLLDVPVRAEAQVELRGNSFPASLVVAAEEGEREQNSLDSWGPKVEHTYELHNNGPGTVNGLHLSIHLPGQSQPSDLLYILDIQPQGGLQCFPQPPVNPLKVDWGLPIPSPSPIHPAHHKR
Sequence (P08514 891-1039 limits assumed): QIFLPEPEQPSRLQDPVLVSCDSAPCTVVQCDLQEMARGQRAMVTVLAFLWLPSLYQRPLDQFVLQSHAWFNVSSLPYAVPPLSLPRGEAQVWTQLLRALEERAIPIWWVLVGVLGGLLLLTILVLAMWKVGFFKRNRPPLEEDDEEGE
Test: Inhibition of fibrinogen binding to purified human GPIIb-IIIa in ELISA
Remember the convention: pIC50 equals -log10 of concentration in molar.

Please review the following examples before continuing.
# molecule, target.or.system, value.reported
records = [
    ("N=C(N)c1ccc(C(=O)Nc2ccc3c(c2)CCC(CC(=O)O)C3=O)c(C(F)(F)F)c1 (centres undefined)", "Integrin alpha-IIb/beta-3 (Homo sapiens, UniProt P05106+P08514)", 7.14),
    ("N=C(N)c1cc(F)c(C(=O)Nc2ccc3c(c2)CCC(CC(=O)O)C3=O)c(F)c1 (centres undefined)", "Integrin alpha-IIb/beta-3 (Homo sapiens, UniProt P05106+P08514)", 8.30),
]

Please report pIC50 for the following molecule: O=C(O)CC1CCc2cc(NC(=O)/C=C/C3CCNCC3)ccc2C1=O (centres undefined) 7.59

Look up pIC50 of O=C(O)CC1CCc2cc(NC(=O)OCC3CCNCC3)ccc2C1=O (centres undefined) and report it. 6.48

----------
Biological target: Integrin alpha-IIb/beta-3 (Homo sapiens, UniProt P05106+P08514)
Assay: Inhibition of fibrinogen binding to purified human GPIIb-IIIa in ELISA
Binary call on IC50 with cut-off 9 nM: strictly below means 1, and equality or higher means 0.

# compound, group.label
data = [
    ("N=C(N)c1ccc(C(=O)Nc2ccc3c(c2)CCC(CC(=O)O)C3=O)s1 (stereo not given)", 0),
    ("N=C(N)c1ccc(C(=O)Nc2ccc3c(c2)CCC(CC(=O)O)C3=O)c(F)c1 (stereo not given)", 1),
]

Please let me know if O=C(O)CC1CCc2cc(NC(=O)CCC3CCNCC3)ccc2C1=O (stereo not given) shows IC50 below 9 nM. 0

Is it true that IC50 reported for O=C(O)CC1CCc2cc(NCCCC3CCNCC3)ccc2C1=O (stereo not given) is less than 9 nM? 0
